In this section we review reported Inactivation Index values for a set of compounds.
- SYSTEM_NAME: Proteasome (Homo sapiens)
- Sequence (P28074 60-263 limits assumed): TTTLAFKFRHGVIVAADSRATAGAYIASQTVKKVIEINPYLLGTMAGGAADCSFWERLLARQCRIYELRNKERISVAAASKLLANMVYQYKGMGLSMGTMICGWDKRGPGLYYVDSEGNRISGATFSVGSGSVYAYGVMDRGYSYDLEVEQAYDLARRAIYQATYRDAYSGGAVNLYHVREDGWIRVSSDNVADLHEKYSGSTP
- MEASUREMENT_PROTOCOL: X-boroLeu proteasome inhibition: thioxamide v. oxoamide
- Assay type: biochemical
- CONDITION_DESCRIPTION: IC50 ph 7.6 to ph 2.0
Give the value as a plain number.

COMPOUND | Inactivation Index
CC(C)C[C@H](NC(=S)CNC(=O)c1cnccn1)B(O)O | 3.8
CC(C)C[C@H](NC(=O)[C@@H](N)Cc1ccccc1)B(O)O [Phe-boroLeu (free Velcade), Phe-boroLeu, reference compound] | 7.5
CC(C)C[C@H](NC(=S)CNC(=S)c1cnccn1)B(O)O [Pyz-Gly-boroLeu Perthioxamide] | 620
CC(C)C[C@H](NC(=O)CN)B(O)O [Gly-boroLeu, reference compound] | 11

The compound CC(C)C[C@H](NC(=S)[C@H](C)N)B(O)O [Ala-boroLeu Thioxamide] showed Inactivation Index equal to 110

The compound CC(C)C[C@H](NC(=S)[C@@H](N)CC(=O)O)B(O)O [Asp-boroLeu Thioxamide] showed Inactivation Index equal to 2.2

The compound CC(C)C[C@H](NC(=O)[C@H](C)N)B(O)O [Ala-boroLeu, reference compound] showed Inactivation Index equal to 3.2

The compound CC(C)C[C@H](NC(=S)CN)B(O)O [Gly-boroLeu Thioxamide] showed Inactivation Index equal to 20

The compound CC(C)C[C@H](NC(=S)[C@@H](N)Cc1ccccc1)B(O)O [Phe-boroLeu Thioxamide] showed Inactivation Index equal to 20

The compound "CC(C)C[C@H](NC(=O)CNC(=S)c1cnccn1)B(O)O" showed Inactivation Index equal to 4.5
